Test system: UO-31
Experiment: NCI tumour cell line growth inhibition, 48 h
The source made the active and inactive calls. No stated cut-off is given here; in the data, active = GI50 up to about 1.1 µM and inactive = higher.
Entry note: the call must match one of yes for active, no for inactive

## Input Please let me know the test result on file for CC(=O)OC1CCn2nnc(CO[Si](C)(C)C(C)(C)C)c21 (centres undefined) .
## Output no

## Input Please let me know the test result on file for CC[C@@]1(OC(=O)CN(C)C)C(=O)OCc2c1cc1n(c2=O)Cc2cc3ccccc3nc2-1 .
## Output yes

## Input Please let me know the test result on file for COC(=O)C(=O)C(C#N)c1cccc2ccccc12 (centres undefined) .
## Output no

## Input Please let me know the test result on file for Cc1ccc(S(=O)(=O)N(CC(O)COc2ccccc2)c2c(F)cccc2F)cc1 (centres undefined) .
## Output no
